Test system: Chlamydomonas reinhardtii
protocol: 8-point dose response assay (0.25-30 μM)
Assay type: cell-based
Design: reference not given here
condition.summary: 2.5 μM compound; 8-point dose response, Nile Red lipid accumulation
Procedure: A large scale in vivo high throughput screen (HTS) was performed to identify small compounds that stimulate lipid production and accumulation using the model organism Chlamydomonas reinhardtii. […] The screening library included 43,736 compounds (ChemBridge, Corp). […] Compounds were further assessed visually using a Nikon Ti-inverted microscope (60×) to reconfirm lipid droplet accumulation was induced.
Okay, here is how we bin by Dose Response Assay 2.5 μM: A = under 0.9, B = from 0.9 up to 2, C = 2 and over

Look over these answered cases.
Cc1c(NC(=O)COc2ccc(Br)cc2)cccc1[N+](=O)[O-] [Compound 47] | B
CC(=O)c1nc2cc([N+](=O)[O-])ccc2n1Cc1ccccc1 [Compound 23] | A

Which Dose Response Assay 2.5 μM band matches CC(=O)Nc1ccc(S(=O)(=O)Nc2cc([N+](=O)[O-])ccc2C)cc1 [Compound 18] ?
B

Which Dose Response Assay 2.5 μM band matches C=CCn1c(SCC(=O)O)nnc1-c1ccc([N+](=O)[O-])cc1 [Compound 25] ?
B

Which Dose Response Assay 2.5 μM band matches Cc1ccsc1C=C(C#N)c1nc(-c2ccc([N+](=O)[O-])cc2)cs1 [Compound 30] ?
A

====

Tested on: Chlamydomonas reinhardtii
protocol: 8-point dose response assay (0.25-30 μM)
Format: cell-based
Parameters: reference not given here
condition.summary: 1.25 μM compound; 8-point dose response, Nile Red lipid accumulation
assay.readout: Dose Response Assay 1.25 μM
Number only, please.

Look over these answered cases.
Cc1ccc(S(=O)(=O)c2ccc(-c3ccc([N+](=O)[O-])cc3)cc2)cc1 [Compound 2] | 0.94
O=[N+]([O-])c1ccccc1CN1CCN(CC2CC3C=CC2C3)CC1 (stereo not drawn) [Compound 39] | 0.99
Cc1ccc(C(=O)Nc2ccccc2C(=O)NC(C)C)cc1[N+](=O)[O-] [Compound 54] | 2.13
COc1ccc(C(=O)c2ccc(N3CCN(C)CC3)c([N+](=O)[O-])c2)cc1 [Compound 45] | 1.57
Cc1cc(C)c(NC(=O)COc2ccccc2[N+](=O)[O-])c(C)c1 [Compound 35] | 1.23
O=C(Nc1ccc([N+](=O)[O-])cc1)c1ccccc1Cl [Compound 11] | 0.97
O=C(Nc1ccc([N+](=O)[O-])cc1)c1c(F)c(F)c(F)c(F)c1F [Compound 56] | 1.34
CCOc1c(Cl)cc(C(=O)Nc2cccc([N+](=O)[O-])c2)cc1Cl [Compound 61] | 0.92

Now for a further molecule.
Here Cc1c(C(=O)Nc2ccccc2C(=O)NCc2ccccc2)cccc1[N+](=O)[O-] [Compound 55] was tested on Chlamydomonas reinhardtii, and its Dose Response Assay 1.25 μM came to 2.01

====

Each entry below lists one item and its recorded Dose Response Assay 2.5 μM value.
Test system: Chlamydomonas reinhardtii
protocol: 8-point dose response assay (0.25-30 μM)
Type: cell-based
Design: reference not given here
condition.summary: 2.5 μM compound; 8-point dose response, Nile Red lipid accumulation
Number only, please.

Look over these answered cases.
Cc1cccc(N2CCN(Cc3ccc([N+](=O)[O-])cc3)CC2)c1C | 0.91
CC(C)c1ccc(CN2CCN(C)CC2)cc1 | 4.4
CCC1CCCCN1C(=O)c1ccc(Cl)cc1[N+](=O)[O-] (centres unmarked) | 0.90
COc1cccc(CN2CCN(C(=O)c3cc(OC)c(OC)c(OC)c3)CC2)c1OC | 0.88
O=C1CC(N2CCc3ccccc3C2)C(=O)N1c1ccc([N+](=O)[O-])cc1 (centres unmarked) | 0.90
Cc1ccc(S(=O)(=O)c2ccc(-c3ccc([N+](=O)[O-])cc3)cc2)cc1 | 0.99
Cc1ccc(C(=O)Nc2ccccc2C(=O)NC(C)C)cc1[N+](=O)[O-] | 2.32
CCN1CCN(Cc2ccc(N(CC)CC)cc2)CC1 | 5.27
O=C(Nc1ccc([N+](=O)[O-])cc1)c1c(F)c(F)c(F)c(F)c1F | 1.8
Cc1c(C(=O)Nc2ccccc2C(=O)NCc2ccccc2)cccc1[N+](=O)[O-] | 2.27

The measured Dose Response Assay 2.5 μM associated with `Cc1cc(C)c(NC(=O)COc2ccccc2[N+](=O)[O-])c(C)c1` reads 1.96
